# Test system: Staphylococcus aureus
# assay: Antibacterial activity against Staphylococcus aureus ATCC 12598 after 24 hrs by broth microdilution method
# Format: functional
# details: ATCC 12598, 24 h
testReadout: MIC (µg/mL)
Express it in µg/mL; write the number only.

# count of solved cases: 3
compound="CCOC(=O)C(Cc1ccc(OCc2cc(=O)oc3c(C)c(C)ccc23)cc1)NC(=O)c1ccccc1 (configuration not stated)" targetsystem="Staphylococcus aureus" observedresult=100
compound="CCOC(=O)C(Cc1ccc(OCc2cc(=O)oc3cc(OC)ccc23)cc1)NC(=O)c1ccccc1 (configuration not stated)" targetsystem="Staphylococcus aureus" observedresult=100
compound=CCOC(=O)c1cc(O)c(OCc2cc(=O)oc3cc(C)ccc23)c(O)c1 targetsystem="Staphylococcus aureus" observedresult=12.5

Param readout = MIC; param system = Staphylococcus aureus; param query = CCOC(=O)C(Cc1ccc(OCc2cc(=O)oc3ccc(OC)cc23)cc1)NC(=O)c1ccccc1 (configuration not stated) ; response: value 100

CCOC(=O)c1cc(O)c(OCc2cc(=O)oc3c2ccc2ccccc23)c(O)c1 ? 1.6

Also CCOC(=O)c1cc(O)c(OCc2cc(=O)oc3ccc(Cl)cc23)c(O)c1 ? 0.4

Okay, and CCOC(=O)c1cc(O)c(OCc2cc(=O)oc3cc(Cl)ccc23)c(O)c1 ? 12.5

Then O=C(O)c1cn(C2CC2)c2cc(N3CCNCC3)c(F)cc2c1=O [CIPROFLOXACIN] ? 2

Let us now turn to CCOC(=O)C(Cc1ccc(OCc2cc(=O)oc3c2ccc2ccccc23)cc1)NC(=O)c1ccccc1 (configuration not stated) 50

Data provenance is ChEMBL document CHEMBL3085670.
